System: 889142-216-R-J1-PDC complex spheroid viability;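 note: spheroids exposed to compounds for seven days; 100% = DMSO vehicle control viability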
measurementProtocol: Anticancer human tumor 889142-216-R-J1-PDC patient-derived bladder carcinoma cell line growth inhibition [POLQ]
conditionSummary: second compound 0.1 µM; first compound 10 µM; active compounds read low
propertyLabel: viability, T/C (%)
Give the value, in units of %, as a plain number.

O=c1[nH]cc(F)c(=O)[nH]1 + Nc1ccc(C#CCN(C(=O)Cc2ncc(C(F)(F)F)cc2C(F)(F)F)c2ccc(F)cc2)nn1	69.1

**Q:** Provide one value: measured viability, T/C of C#Cc1c(F)ccc2cc(O)cc(-c3ncc4c(N5CC6CCC(C5)N6)nc(OCC56CCCN5CC(F)C6)nc4c3F)c12 (stereo not drawn) + Cc1cccc(N(C)C(=O)C2C(O)CCN2c2nc(C)cc(C(F)(F)F)c2C#N)c1
**A:** 31.9

**Q:** Provide one value: measured viability, T/C of Nc1ccn(C2OC(CO)C(O)C2(F)F)c(=O)n1 (stereo not drawn) + Nc1ccc(C#CCN(C(=O)Cc2ncc(C(F)(F)F)cc2C(F)(F)F)c2ccc(F)cc2)nn1
**A:** 34.5
